These entries and their values trace back to ChEMBL document CHEMBL1150330.

Listing: pKb of selected compounds
# ASSAY EXPLANATION: Antagonist activity against muscarinic M3 receptor in guinea pig ileum assessed as effect on ileum tension
# Format: functional, Cavia porcellus

C[N+]1(C)CCC[C@@H]1[C@@H]1C[S+]([O-])[C@@](c2ccccc2)(C2CCCCC2)O1.[I-] (stereo in doubt; (+)-14) : 9
CN1CCC[C@@H]1[C@@H]1C[S+]([O-])[C@@](c2ccccc2)(C2CCCCC2)O1 (stereo in doubt; (+)-9) : 7.59
C[N+]1(C)CCC[C@@H]1[C@@H]1C[S+]([O-])[C@](c2ccccc2)(C2CCCCC2)O1.[I-] (stereo in doubt; (-)-12) : 7.11

In the following, a different compound is considered.
Input line: Please look up its pKb: "C[N+](C)(C)C[C@@H]1C[S@](=O)[C@@](c2ccccc2)(C2CCCCC2)O1.[I-]"
Output line: 7.64

----------
The following are reported log10 Ki results, target or system Muscarinic acetylcholine receptor M1 (Homo sapiens, UniProt P11229).
Form field - Quantity: Ki; Unit: nM; Scale: log10

Here is how some molecules turned out for log10 Ki.
CN1CCC[C@@H]1[C@@H]1C[S+]([O-])[C@@](c2ccccc2)(C2CCCCC2)O1 (stereo in doubt; (+)-9) : 2.03
C[N+]1(C)CCC[C@@H]1[C@@H]1C[S+]([O-])C(c2ccccc2)(c2ccccc2)O1.[I-] (stereo in doubt; (-)-10) : 1.73
CN1CCC[C@@H]1[C@@H]1C[S+]([O-])C(c2ccccc2)(c2ccccc2)O1 (stereo in doubt; (+)-5) : 2.04
C[N+](C)(C)C[C@@H]1C[S@](=O)[C@@](c2ccccc2)(C2CCCCC2)O1.[I-] : 1.34
CN1CCC[C@H]1[C@H]1C[S+]([O-])[C@@](c2ccccc2)(C2CCCCC2)O1 (stereo in doubt; (+)-7) : 1.00

In the following, a different molecule is considered.
Input line: For the record C[N+]1(C)CCC[C@H]1[C@H]1C[S+]([O-])C(c2ccccc2)(c2ccccc2)O1.[I-] (stereo in doubt; (+)-10) , what value of log10 Ki is listed for Muscarinic acetylcholine receptor M1 (Homo sapiens, UniProt P11229)?
Output line: 1.47

----------
The following are reported pKi results, target or system Muscarinic acetylcholine receptor M3 (Homo sapiens).
# pKi = -log10(concentration in molar units)

Here is how some compounds turned out for pKi.
CN1CCC[C@H]1[C@H]1C[S+]([O-])C(c2ccccc2)(c2ccccc2)O1 (stereo in doubt; (+)-4) : 6.33
C[N+]1(C)CCC[C@@H]1[C@@H]1C[S+]([O-])C(c2ccccc2)(c2ccccc2)O1.[I-] (stereo in doubt; (-)-10) : 6.58

Input line: Please look up its pKi: C[N+]1(C)CCC[C@@H]1[C@@H]1C[S+]([O-])[C@@](c2ccccc2)(C2CCCCC2)O1.[I-] (stereo in doubt; (+)-14)
Output line: 8.16

Input line: Please look up its pKi: CN1CCC[C@H]1[C@H]1C[S+]([O-])C(c2ccccc2)(c2ccccc2)O1 (stereo in doubt; (-)-5)
Output line: 6.52

Input line: Please look up its pKi: C[N+]1(C)CCC[C@H]1[C@H]1C[S+]([O-])[C@@](c2ccccc2)(C2CCCCC2)O1.[I-] (stereo in doubt; (+)-13)
Output line: 8.38

Input line: Please look up its pKi: C[N+]1(C)CCC[C@H]1[C@H]1C[S+]([O-])C(c2ccccc2)(c2ccccc2)O1.[I-] (stereo in doubt; (-)-11)
Output line: 7.29

Input line: Please look up its pKi: CN1CCC[C@@H]1[C@@H]1C[S+]([O-])[C@@](c2ccccc2)(C2CCCCC2)O1 (stereo in doubt; (+)-8)
Output line: 7.62

Input line: Please look up its pKi: C[N+]1(C)CCC[C@H]1[C@H]1C[S+]([O-])C(c2ccccc2)(c2ccccc2)O1.[I-] (stereo in doubt; (+)-10)
Output line: 6.68

Input line: Please look up its pKi: CN1CCC[C@@H]1[C@@H]1C[S+]([O-])C(c2ccccc2)(c2ccccc2)O1 (stereo in doubt; (-)-4)
Output line: 6.29

Input line: Please look up its pKi: C[N+]1(C)CCC[C@@H]1[C@@H]1C[S+]([O-])[C@@](c2ccccc2)(C2CCCCC2)O1.[I-] (stereo in doubt; (+)-15)
Output line: 6.79

Input line: Please look up its pKi: CN1CCC[C@H]1[C@H]1C[S+]([O-])[C@](c2ccccc2)(C2CCCCC2)O1 (stereo in doubt; (-)-8)
Output line: 6.16

Input line: Please look up its pKi: CN1CCC[C@@H]1[C@@H]1C[S+]([O-])[C@@](c2ccccc2)(C2CCCCC2)O1 (stereo in doubt; (+)-9)
Output line: 6.70

Input line: Please look up its pKi: CN1CCC[C@@H]1[C@@H]1C[S+]([O-])C(c2ccccc2)(c2ccccc2)O1 (stereo in doubt; (+)-5)
Output line: 6.55
